Reference source: paper PMC12516686

Listing of recorded pIC50 by entry.
- Subject Of Test: CYP3A4 (Homo sapiens, UniProt P08684)
- Construct: purchased Promega; host or cells: baculovirus-infected insect cells
- Sequence (P08684 whole entry): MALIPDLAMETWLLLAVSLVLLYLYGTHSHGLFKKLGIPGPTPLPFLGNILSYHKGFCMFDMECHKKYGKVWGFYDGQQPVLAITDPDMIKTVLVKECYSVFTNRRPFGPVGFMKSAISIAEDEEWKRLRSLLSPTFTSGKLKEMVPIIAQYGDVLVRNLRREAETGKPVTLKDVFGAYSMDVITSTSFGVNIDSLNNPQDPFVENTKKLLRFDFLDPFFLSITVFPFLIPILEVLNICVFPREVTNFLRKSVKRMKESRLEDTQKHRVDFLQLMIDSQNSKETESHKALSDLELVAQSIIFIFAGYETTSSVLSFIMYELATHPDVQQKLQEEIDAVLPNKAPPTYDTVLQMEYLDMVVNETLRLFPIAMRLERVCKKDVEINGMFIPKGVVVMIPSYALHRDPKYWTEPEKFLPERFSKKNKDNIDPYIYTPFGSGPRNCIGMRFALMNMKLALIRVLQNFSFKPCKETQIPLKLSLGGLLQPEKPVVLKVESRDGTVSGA
- Assay Overview: Cytochrome P450 assay (P450-Glo), isoform 3A4
- Format: in vitro ADME
- Settings: read-out: CYP 3A4 IC50
Please report pIC50 as the negative decimal logarithm of the molar concentration, giving only the number.

Some solved entries appear below for comparison.
Nc1nc2ccccc2n1Cc1ccc(Cl)c(Cl)c1 [I, reference compound] ... 5.51
Nc1nc2ccc(C(=O)N(CCc3ccc(Cl)c(Cl)c3)C3CC3)cc2s1 [Compound 1b] ... 6.15
Nc1nc2ccc(C(=O)NCCc3ccc(Cl)c(Cl)c3)cc2s1 [Compound 1a] ... 6.00
Nc1nc2ccc(C(=O)NCCc3ccccc3)cc2s1 [Compound 2a] ... 4.70
Nc1nc2ccc(CN(Cc3ccc(Cl)c(Cl)c3)C3CC3)cc2s1 [Compound 1d] ... 5.40
Nc1nc2ccc(C(=O)NCCc3cccc(Br)c3)cc2s1 [Compound 2d] ... 5.27
Nc1nc2ccc(C(=O)NCCc3ccc(Br)cc3)cc2s1 [Compound 2e] ... 5.33

Asked: With CYP3A4 (Homo sapiens, UniProt P08684) as the test system, provide measured pIC50 for this compound: Nc1nc2ccc(C(=O)N(Cc3ccc(Cl)c(Cl)c3)C3CC3)cc2s1 [Compound 1c]
Given back: 5.89
